biological target: OGG1 (Homo sapiens (Human), UniProt O15527); assay: OGG1 inhibitor assay with fluorogenic OGR1 probe (base excision, initial rates); type: biochemical; conditions: 2 μM compound; ratio of initial rate slope (first 12 min) to no-compound control
Sequence (O15527 whole entry): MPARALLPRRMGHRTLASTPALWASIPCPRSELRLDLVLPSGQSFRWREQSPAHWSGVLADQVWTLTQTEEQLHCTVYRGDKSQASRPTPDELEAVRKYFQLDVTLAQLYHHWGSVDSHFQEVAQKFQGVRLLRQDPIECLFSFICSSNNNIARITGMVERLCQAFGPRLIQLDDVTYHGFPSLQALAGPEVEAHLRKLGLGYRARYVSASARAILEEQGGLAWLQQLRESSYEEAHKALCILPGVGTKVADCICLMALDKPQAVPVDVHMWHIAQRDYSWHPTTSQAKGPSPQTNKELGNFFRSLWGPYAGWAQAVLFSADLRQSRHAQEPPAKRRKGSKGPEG
measured_endpoint: Enzyme activity, % of control at 2 μM

* COc1ccc(-c2ccc(S(=O)(=O)Nc3ccc4c(c3)N(C(=O)C3CC3)CCC4)cc2)cc1 | 31 % of control
* O=C(C1CC1)N1CCCc2ccc(NS(=O)(=O)c3ccc4oc5ccccc5c4c3)cc21 | 82 % of control
* CCOc1ccc(S(=O)(=O)Nc2ccc3c(c2)CN(C(=O)C2CC2)CC3)cc1 | 94 % of control
* COc1cccc(-c2ccc(S(=O)(=O)Nc3ccc4c(c3)N(C(=O)C3CC3)CCC4)cc2)c1 | 13 % of control
* O=C(C1CC1)N1CCCc2ccc(NS(=O)(=O)c3ccc(-c4ccccc4)cc3)cc21 | 29 ± 7.0 % of control
* O=C(C1CC1)N1CCCc2ccc(NS(=O)(=O)c3ccc(N4CCOCC4)cc3)cc21 | 76 % of control
* CCOc1ccc(S(=O)(=O)Nc2ccc3c(c2)N(C(=O)C2CC2)CCCC3)cc1 | 76 % of control
* CCCOc1ccc(S(=O)(=O)Nc2ccc3c(c2)N(C(=O)C2CC2)CCC3)cc1 | 19 % of control
* CCOc1ccc(S(=O)(=O)Nc2ccc3c(c2)N(C(=O)Cc2ccccc2)CCC3)cc1 | ≥100 % of control
* CCOc1ccc(S(=O)(=O)Nc2ccc3c(c2)N(C(=O)NC2CC2)CCC3)cc1 | 87 % of control
* CCOc1ccc(S(=O)(=O)N(C)c2ccc3c(c2)N(C(=O)C2CC2)CCC3)cc1 | 84 % of control
* CCOc1ccc(S(=O)(=O)Nc2cc3c(cc2OC)CCCN3C(=O)C2CC2)cc1 | ≥100 % of control
* CCOc1ccc(S(=O)(=O)Nc2ccc3c(c2)N(C(=O)C2CCC2)CCC3)cc1 | 69 % of control
* CCCc1ccc(S(=O)(=O)Nc2ccc3c(c2)N(C(=O)C2CC2)CCC3)cc1 | 35 % of control
* CCC(=O)N1CCCc2ccc(NS(=O)(=O)CC)cc21 | 94 % of control
* O=C(C1CC1)N1CCCc2ccc(NS(=O)(=O)c3ccc(-c4cccnc4)cc3)cc21 | 23 ± 1.5 % of control
* CCOc1ccc(S(=O)(=O)Nc2ccc3c(c2)N(C(=O)C2CC2)CCO3)cc1 | 90 % of control

###

Listed here are molecules together with their documented Enzyme activity, % of control at 2 μM.
molecular target: OGG1 (Homo sapiens (Human), UniProt O15527); test: OGG1 inhibitor assay with fluorogenic OGR1 probe (base excision, initial rates); format: biochemical; details: 2 μM compound; ratio of initial rate slope (first 12 min) to no-compound control
measured_endpoint: Enzyme activity, % of control at 2 μM

- O=C(C1CC1)N1CCCc2ccc(NS(=O)(=O)c3ccc(C4CCCCC4)cc3)cc21: 25 % of control
- CCOc1ccc(S(=O)(=O)Nc2ccc3c(c2)N(C(=O)C2CC2)CCC3)cc1C: 71 % of control
- CCOc1ccc(S(=O)(=O)Nc2ccc3c(c2)N(S(=O)(=O)CC)CCC3)cc1: 96 % of control
- NC(=O)c1cccc(-c2ccc(S(=O)(=O)Nc3ccc4c(c3)N(C(=O)C3CC3)CCC4)cc2)c1: 4.8 % of control
